Target: ATP-dependent RNA helicase DDX3X (Homo sapiens); further: in the data inactive means no Kd found up to 30 µM
Sequence (O00571 whole entry): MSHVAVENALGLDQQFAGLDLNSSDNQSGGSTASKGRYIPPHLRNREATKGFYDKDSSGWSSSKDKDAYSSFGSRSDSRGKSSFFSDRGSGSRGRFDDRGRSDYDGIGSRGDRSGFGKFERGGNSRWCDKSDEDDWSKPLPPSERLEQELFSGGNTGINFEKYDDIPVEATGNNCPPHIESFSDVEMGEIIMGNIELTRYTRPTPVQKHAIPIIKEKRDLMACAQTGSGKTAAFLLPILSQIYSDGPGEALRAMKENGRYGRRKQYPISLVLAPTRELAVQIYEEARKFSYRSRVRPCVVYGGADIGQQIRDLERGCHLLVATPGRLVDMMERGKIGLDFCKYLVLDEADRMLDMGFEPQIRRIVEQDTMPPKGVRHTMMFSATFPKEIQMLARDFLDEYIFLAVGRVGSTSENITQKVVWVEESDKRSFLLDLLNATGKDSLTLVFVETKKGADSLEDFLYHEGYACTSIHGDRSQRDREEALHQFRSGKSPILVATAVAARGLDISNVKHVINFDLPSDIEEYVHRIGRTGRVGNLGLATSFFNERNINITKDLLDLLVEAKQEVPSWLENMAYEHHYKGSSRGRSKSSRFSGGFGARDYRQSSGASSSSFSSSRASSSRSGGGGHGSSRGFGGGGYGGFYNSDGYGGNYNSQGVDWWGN
Active and inactive are the calls of the source.
reported_property: Kd

Below, each entry is followed by its recorded Kd result.
[[record]]
smiles_input = "Cn1cc(C2=C(c3cn(C4CCN(Cc5ccccn5)CC4)c4ccccc34)C(=O)NC2=O)c2ccccc21"
reported = "> 30 µM (inactive)"

[[record]]
smiles_input = "NC(=O)c1c(OCc2c(F)cc(Br)cc2F)nsc1NC(=O)NCCCCN1CCCC1"
reported = "> 30 µM (inactive)"

[[record]]
smiles_input = "CN1CCN(CCOc2cc(OC3CCOCC3)c3c(Nc4c(Cl)ccc5c4OCO5)ncnc3c2)CC1"
reported = "> 30 µM (inactive)"


// next entry
Quick one: Kd of C[C@@H](Oc1cc(-n2cnc3ccc(CN4CCN(C)CC4)cc32)sc1C(N)=O)c1ccccc1C(F)(F)F ?
> 30 µM (inactive)

# credit: ChEMBL document CHEMBL3991601
